Metric Name: GI50

Here `NCCC1([N+](=O)[O-])CCNCC1` was tested on HCT-15, and its GI50 came to > 100 µM

Here O=C(O)CCC(NC(=O)c1ccc(CNc2nc3cc(C(F)(F)F)ccc3nc2C(=O)O)cc1)C(=O)O (stereo not drawn) was tested on HCT-15, and its GI50 came to > 100 µM

Here `COC(=O)[C@H](Cc1ccccc1)NC(=O)N(CCN(CCC#N)C(=O)N[C@H](C(=O)OC)C(C)C)c1ccccc1` was tested on HCT-15, and its GI50 came to > 100 µM

###

Tested on: CCRF-CEM
Test: NCI tumour cell line growth inhibition, 48 h
Activity calls are given as the source filed them. No stated cut-off is given here; in the data, active = GI50 up to about 1.1 µM and inactive = higher.
Respond only with the outcome that fits, drawn from active, inactive

I'd appreciate the recorded outcome for `CCO/C=C1\N=C(c2ccc(Cl)c(Cl)c2)OC1=O` from this test.
inactive

I'd appreciate the recorded outcome for `Fc1cc(F)c(F)c(S)c1F` from this test.
inactive

I'd appreciate the recorded outcome for `Nc1nncc2[nH]cnc12` from this test.
inactive

I'd appreciate the recorded outcome for `CO/C(=N\N=C\c1cccc(C(F)(F)F)c1)c1ccncc1` from this test.
inactive

I'd appreciate the recorded outcome for `COc1cc(OC)cc(C(=O)CC(=O)c2cc(OC)cc(OC)c2)c1` from this test.
inactive

I'd appreciate the recorded outcome for `COc1ccc2c(c1)[n+]([O-])c(/C(C)=N/NC(=O)CC#N)c[n+]2[O-]` from this test.
inactive

I'd appreciate the recorded outcome for `Cc1cc2c(cc1C)[n+]([O-])c(C(=O)/C=C/c1ccc3c(c1)OCO3)c(C)[n+]2[O-]` from this test.
inactive

I'd appreciate the recorded outcome for `O=S(=O)(O)c1ccc(/N=N/c2ccc(/N=N/c3c(O)c(S(=O)(=O)O)cc4cc(S(=O)(=O)O)ccc34)cc2)cc1` from this test.
inactive

I'd appreciate the recorded outcome for `Cc1cc(C)nc(NS(=O)(=O)c2ccc(NC(=O)NC(F)(F)F)cc2)n1` from this test.
inactive

I'd appreciate the recorded outcome for `COc1ccc(NCc2cnc3nc(N)nc(N)c3c2C)cc1` from this test.
active
